- EXPERIMENT: Triple-cannulated cynomolgus monkey model: plasma PK after site-specific delivery
- Assay type: in vivo
- MEASUREMENT CONDITIONS: plasma, 5 mg/kg, 5 mg/kg in solution, dosing region duodenum (cannula)
MEASURED PROPERTY: AUC

1) CC(C)(CCn1cnc(-c2cccnc2)c1)NCC(=O)N1CCC[C@H]1C#N    3890 ng·h/mL

---

- EXPERIMENT: Pharmacoscintigraphic evaluation of regional drug absorption: plasma pharmacokinetics after site-specific gastrointestinal delivery (Enterion capsule)
- Type: in vivo, human
- MEASUREMENT CONDITIONS: both sexes, human, plasma, oral, 400 mg, healthy volunteers, dosing region stomach, read-out: Mean (SD) Cmax
MEASURED PROPERTY: Cmax (ng/mL)

1. CS(=O)(=O)O.Cc1oc(-c2ccccc2)nc1CCNCC(=O)N1CCC[C@H]1C#N    5570
